// provenance: patent US20230073777A1

tested on: MM.1S; test: Cell viability assay, MM.1S; type: cell-based; details: Homo sapiens, MM1.S, Multiple Myeloma
attributeMeasured: pIC50
One number for each entry, as −log10 of the molar value.

# molecule, testTarget, pIC50
data = [
    ("CNC(=O)N1CCc2c(c(N3CCCc4cc(-c5cnn(C)c5)c(C(F)F)cc43)nn2C2CCOCC2)C1 [GNE-781, reference compound]", "MM.1S", 7.89),
]

Record pIC50 per entry; entries follow.
1. CNC(=O)N1CCc2c(c(N3CCCc4cc(-c5cnn(C)c5)c(C(F)F)cc43)nn2C2CCN(C(=O)CCCCCCCNc3ccc4c(c3)C(=O)N(C3CCC(=O)NC3=O)C4=O)CC2)C1 (stereo not drawn) [P-007]
2. CNC(=O)N1CCc2c(c(N3CCCc4cc(-c5cnn(C)c5)c(C(F)F)cc43)nn2C2CCN(C(=O)CCCCCNc3cccc4c3C(=O)N(C3CCC(=O)NC3=O)C4=O)CC2)C1 (stereo not drawn) [P-034]

Response:
9.15
9.70

* * *

For each entry below, report its IC50 value.
system: SK-BR-3; test: Cell viability assay, SK-BR-3; format: cell-based; conditions: Homo sapiens, SK-BR-3, breast carcinoma
Give bare numbers, in nM.

# compound, testTarget, value
rows = [
    ("CNC(=O)N1CCc2c(c(N3CCCc4cc(-c5cnn(C)c5)c(C(F)F)cc43)nn2C2CCN(C(=O)CCCCCNc3cccc4c3C(=O)N(C3CCC(=O)NC3=O)C4=O)CC2)C1 (stereo not drawn)", "SK-BR-3", 10.1),
]

Consider the additional compound presented here.
Query: Can you look up the measured IC50 of CNC(=O)N1CCc2c(c(N3CCCc4cc(-c5cnn(C)c5)c(C(F)F)cc43)nn2C2CCN(C(=O)CCCCCCCNc3ccc4c(c3)C(=O)N(C3CCC(=O)NC3=O)C4=O)CC2)C1 (stereo not drawn) for me?
Response: 5.5

* * *

Kindly supply the reported inhibition at 0.01 µM values for the records listed here.
molecular target: P300 (Homo sapiens); assay: Immunoblotting of P300 protein levels in LNCaP or 22RV1 cells; format: cell-based; set-up: LNCaP or 22RV1 cells that express CBP/P300 proteins were treated with GNE-781 or the bivalent compounds; endogenous in cells; host or cells: LNCaP (clone FGC) or 22RV1 cells; conditions: percentage of inhibition of p300 at 10 nM (Table 3); read-out: Degradation (10 nM)
Sequence (Q09472 whole entry): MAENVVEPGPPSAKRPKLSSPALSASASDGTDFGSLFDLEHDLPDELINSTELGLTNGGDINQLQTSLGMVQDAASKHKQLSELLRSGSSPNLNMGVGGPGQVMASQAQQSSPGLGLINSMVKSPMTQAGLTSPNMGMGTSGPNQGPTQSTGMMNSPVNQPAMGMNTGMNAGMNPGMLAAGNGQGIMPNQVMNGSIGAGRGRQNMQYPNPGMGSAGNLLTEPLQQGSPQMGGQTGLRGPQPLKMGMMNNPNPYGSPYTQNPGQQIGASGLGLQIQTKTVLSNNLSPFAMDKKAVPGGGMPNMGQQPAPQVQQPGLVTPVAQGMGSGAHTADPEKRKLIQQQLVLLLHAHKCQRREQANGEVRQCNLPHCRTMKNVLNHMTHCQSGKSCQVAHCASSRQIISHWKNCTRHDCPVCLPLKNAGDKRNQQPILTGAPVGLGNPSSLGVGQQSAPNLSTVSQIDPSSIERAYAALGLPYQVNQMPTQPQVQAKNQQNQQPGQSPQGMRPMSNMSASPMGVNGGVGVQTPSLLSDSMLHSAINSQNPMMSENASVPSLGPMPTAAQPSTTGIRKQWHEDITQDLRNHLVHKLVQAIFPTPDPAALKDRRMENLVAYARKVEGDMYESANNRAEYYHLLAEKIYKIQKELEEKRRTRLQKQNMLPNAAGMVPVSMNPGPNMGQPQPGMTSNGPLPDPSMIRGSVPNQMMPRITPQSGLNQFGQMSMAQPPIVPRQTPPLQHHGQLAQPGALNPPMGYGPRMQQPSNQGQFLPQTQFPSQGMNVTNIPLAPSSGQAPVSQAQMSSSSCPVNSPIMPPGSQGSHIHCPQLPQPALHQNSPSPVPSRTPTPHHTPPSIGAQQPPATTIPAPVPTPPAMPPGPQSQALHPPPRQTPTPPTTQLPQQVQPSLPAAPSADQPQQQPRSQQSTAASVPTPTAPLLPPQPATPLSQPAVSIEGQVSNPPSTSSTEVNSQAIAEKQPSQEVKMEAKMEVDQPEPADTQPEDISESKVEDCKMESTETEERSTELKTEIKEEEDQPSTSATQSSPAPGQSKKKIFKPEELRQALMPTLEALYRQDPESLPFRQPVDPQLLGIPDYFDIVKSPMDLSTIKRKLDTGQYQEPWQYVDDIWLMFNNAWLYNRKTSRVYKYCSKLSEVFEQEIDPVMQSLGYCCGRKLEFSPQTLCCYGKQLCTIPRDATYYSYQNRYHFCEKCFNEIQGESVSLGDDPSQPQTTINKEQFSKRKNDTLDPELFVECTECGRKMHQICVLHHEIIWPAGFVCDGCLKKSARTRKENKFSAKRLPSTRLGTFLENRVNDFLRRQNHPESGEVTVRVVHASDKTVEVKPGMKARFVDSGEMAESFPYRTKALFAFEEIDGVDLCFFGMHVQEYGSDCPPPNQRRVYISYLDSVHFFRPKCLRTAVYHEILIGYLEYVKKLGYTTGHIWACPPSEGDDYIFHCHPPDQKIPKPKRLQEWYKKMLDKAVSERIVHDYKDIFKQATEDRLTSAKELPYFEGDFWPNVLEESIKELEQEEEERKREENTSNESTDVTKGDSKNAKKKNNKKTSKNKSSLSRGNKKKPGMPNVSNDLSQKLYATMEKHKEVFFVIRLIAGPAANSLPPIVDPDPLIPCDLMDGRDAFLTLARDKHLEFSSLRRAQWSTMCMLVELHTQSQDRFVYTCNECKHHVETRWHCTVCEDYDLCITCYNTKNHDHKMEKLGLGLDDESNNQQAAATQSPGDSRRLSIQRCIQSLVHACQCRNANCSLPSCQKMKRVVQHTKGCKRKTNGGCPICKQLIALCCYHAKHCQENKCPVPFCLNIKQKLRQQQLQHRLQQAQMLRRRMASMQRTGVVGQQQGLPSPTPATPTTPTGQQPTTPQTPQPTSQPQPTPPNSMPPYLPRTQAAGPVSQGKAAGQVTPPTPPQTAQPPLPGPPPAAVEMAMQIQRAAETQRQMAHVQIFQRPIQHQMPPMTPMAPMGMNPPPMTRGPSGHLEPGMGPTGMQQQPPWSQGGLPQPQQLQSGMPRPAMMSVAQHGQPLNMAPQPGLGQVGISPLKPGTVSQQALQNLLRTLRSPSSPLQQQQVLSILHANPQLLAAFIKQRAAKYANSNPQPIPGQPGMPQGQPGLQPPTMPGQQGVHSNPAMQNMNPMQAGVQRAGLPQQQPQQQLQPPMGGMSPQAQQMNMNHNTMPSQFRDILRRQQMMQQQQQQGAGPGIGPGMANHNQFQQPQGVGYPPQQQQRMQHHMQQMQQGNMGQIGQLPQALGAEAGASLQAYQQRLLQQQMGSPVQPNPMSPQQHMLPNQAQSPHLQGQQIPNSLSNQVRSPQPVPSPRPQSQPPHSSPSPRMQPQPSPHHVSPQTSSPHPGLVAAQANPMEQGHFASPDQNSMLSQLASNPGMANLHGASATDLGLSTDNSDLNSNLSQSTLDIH

Illustrative cases are given below, each with its answer.
# molecule, inhibition at 0.01 µM
data = [
    ("CNC(=O)N1CCc2c(c(N3CCCc4cc(-c5cnn(CC(=O)NCCOCCOCCOCCC(=O)N[C@H](C(=O)N6C[C@H](O)C[C@H]6C(=O)NCc6ccc(-c7scnc7C)cc6)C(C)(C)C)c5)c(C(F)F)cc43)nn2C2CCOCC2)C1", "< 20%"),
    ("CNC(=O)N1CCc2c(c(N3CCCc4cc(-c5cnn(C)c5)c(C(F)F)cc43)nn2C2CCN(CCCCCCCc3cccc4c3C(=O)N(C3CCC(=O)NC3=O)C4=O)CC2)C1 (centres unmarked)", "> 80%"),
    ("CC(=O)N1CCc2c(c(N3CCCc4cc(-c5cnn(C)c5)c(C(F)F)cc43)nn2C2CCN(C(=O)CCCCCNc3cccc4c3C(=O)N(C3CCC(=O)NC3=O)C4=O)CC2)C1 (centres unmarked)", "> 80%"),
    ("CC(=O)N1CCc2c(c(N3CCCc4cc(-c5cnn(C)c5)c(C(F)F)cc43)nn2C2CCN(C(=O)CCCCNc3cccc4nc(C)n(C5CCC(=O)NC5=O)c(=O)c34)CC2)C1 (centres unmarked)", "20 to 50%"),
]

Turning now to a further molecule:
Query: Item: CC(=O)N1CCc2c(c(N3CCCc4cc(-c5cnn(C)c5)c(C(F)F)cc43)nn2C2CCN(C(=O)CCCCCCCNc3ccc4c(c3)C(=O)N(C3CCC(=O)NC3=O)C4=O)CC2)C1 (centres unmarked) Test system: P300 (Homo sapiens) Read-out: inhibition at 0.01 µM Value: ?
Response: > 80%
